Data provenance: patent US8716295B2

- system: recombinant Tdp1 (Homo sapiens)
- Sequence (Q9NUW8 whole entry): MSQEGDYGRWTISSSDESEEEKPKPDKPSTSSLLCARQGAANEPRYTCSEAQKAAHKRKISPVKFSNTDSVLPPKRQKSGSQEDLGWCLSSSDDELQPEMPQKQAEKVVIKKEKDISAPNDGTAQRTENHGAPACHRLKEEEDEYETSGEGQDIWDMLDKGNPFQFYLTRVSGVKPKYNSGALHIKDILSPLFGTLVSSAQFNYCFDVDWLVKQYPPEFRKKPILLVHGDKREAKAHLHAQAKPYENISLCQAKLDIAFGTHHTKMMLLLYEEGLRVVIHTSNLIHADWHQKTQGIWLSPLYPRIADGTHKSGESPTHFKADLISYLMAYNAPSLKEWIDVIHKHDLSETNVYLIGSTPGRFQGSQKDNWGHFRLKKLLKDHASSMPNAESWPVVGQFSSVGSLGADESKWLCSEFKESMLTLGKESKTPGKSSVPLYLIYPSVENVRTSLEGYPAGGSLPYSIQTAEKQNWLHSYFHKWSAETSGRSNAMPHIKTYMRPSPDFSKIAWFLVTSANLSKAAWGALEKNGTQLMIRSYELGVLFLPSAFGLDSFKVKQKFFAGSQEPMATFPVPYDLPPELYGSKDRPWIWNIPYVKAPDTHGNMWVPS
- assay-info: Gel-based Tdp1 catalytic activity inhibition assay (5'-32P-labeled N14Y DNA substrate, denaturing PAGE)
- Format: biochemical
- study-conditions: 0.2 nmol/L recombinant Tdp1, 1 nmol/L N14Y substrate, 15 min, room temperature; read-out: inhibit Tdp1 catalytic activity (IC50 Tdp1 inhibition)
pIC50: −log10 of the molar value.
readout-name: pIC50

> print(dat)
                                   compound  recorded.result
1  CCn1cc(C(=O)O)c(=O)c2cc(F)c(N3CCN(CNc4ccc(S(=O)(=O)Nc5nc(C)cc(C)n5)cc4)CC3)cc21             8.30
